The values you see were collected from paper PMC4940160.

# SUBJECT_OF_TEST: NELF-A (6-188) patches 1,4;NELF-C (183-590) patches 1,2,4 (Homo sapiens;Homo sapiens, UniProt Q9H3P2;Q8IXH7 6-188;183-590, R65Q;R66Q;K146M;K161M;K168M;R175Q|R291Q;K315M;K371M;K372M;K374M;R419Q;R506Q)
# Sequence (Q9H3P2 6-188 R65Q/R66Q/K146M/K161M/K168M/R175Q, chain 1 of 2): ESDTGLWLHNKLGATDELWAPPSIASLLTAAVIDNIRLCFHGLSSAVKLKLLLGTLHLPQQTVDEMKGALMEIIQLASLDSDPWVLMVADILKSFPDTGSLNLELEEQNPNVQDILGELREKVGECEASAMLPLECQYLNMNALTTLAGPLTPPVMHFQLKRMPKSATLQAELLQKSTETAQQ
# Sequence (Q8IXH7 183-590 R291Q/K315M/K371M/K372M/K374M/R419Q/R506Q, chain 2 of 2): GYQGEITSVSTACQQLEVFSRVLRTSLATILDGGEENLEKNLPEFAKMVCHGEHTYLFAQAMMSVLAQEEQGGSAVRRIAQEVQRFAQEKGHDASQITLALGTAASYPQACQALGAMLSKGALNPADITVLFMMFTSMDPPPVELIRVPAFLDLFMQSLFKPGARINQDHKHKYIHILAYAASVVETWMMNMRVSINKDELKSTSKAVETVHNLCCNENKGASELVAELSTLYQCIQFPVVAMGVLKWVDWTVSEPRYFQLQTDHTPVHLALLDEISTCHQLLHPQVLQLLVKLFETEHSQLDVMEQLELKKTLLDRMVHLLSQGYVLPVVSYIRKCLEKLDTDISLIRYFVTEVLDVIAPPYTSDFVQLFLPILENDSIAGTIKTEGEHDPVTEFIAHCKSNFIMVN
# TEST_NAME: fluorescence anisotropy; text says impaired; Bmax printed 12.92; NELF-AC: 30 mM NaCl, 3 mM MgCl2, 10 mM Na-HEPES pH 7.4, 2 mM DTT, 50 ug/ml BSA; other NELF complexes: same with 60 mM NaCl and 5 ug/ml yeast tRNA; 10 nM nucleic acid, incubated at RT, read at 30 C
# RUN_PARAMETERS: protein: recombinant;recombinant; tags: N-His6 removed by thrombin;none; copies: 1;1; label: 5'-FAM; single strand
OBSERVABLE: Kd (µM)

- AAGGGGAGCGGGGGAGGATAATAGG (ssDNA) [60% GC ssDNA]: 12.9
